# Target Or Test System: T1, TJP3_3, O95049
# T1 sequence (O95049 375-456, limits assumed, looked up): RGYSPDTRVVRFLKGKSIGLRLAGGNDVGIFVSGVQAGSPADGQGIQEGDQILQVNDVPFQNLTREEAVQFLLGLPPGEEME
# Assay: holdup assay
# Set-up: key: below the threshold = too weak to quantify, mostly under pKd 3.1 to 4
# Test Context: plain residues with an end cap or a label only (N-terminal biotin on a linker: ttds)
Parameter: pKd

Below, 7 binders whose answers are already recorded.
PKTPPTDTSV [KIR3DL3, Q8N743]: below the threshold
QSARYRDTEL [TJP2, Q9UDY2]: 3.55
IYVPEAQTRL [DLGAP4, Q9Y2H0]: below the threshold
GQDSREETQL [KCNT2, Q6UVM3]: below the threshold
STLTIFETAL [ABCC4, O15439]: below the threshold
VLRLQSETSV [VANGL1, Q8TAA9]: below the threshold
IDNDTESTAL [ARHGAP17, Q68EM7]: below the threshold

Next binder, please.
Input: Look up pKd: SVWLRKETRV [CYSLTR2, Q9NS75]
Output: 3.37
